# Test system: NCI-H460
# experimentNotes: Cytotoxicity against human NCI-H460 cells
# Assay type: functional
# testContext: read-out: pLC50 (the source's name) (converted)
measuredQuantity: CC50

Before answering, review these 3 worked examples.
>  <inputSmiles>
CC1(C)[C@H](O)CC[C@@]2(C)Oc3c(O)cc(/C=C/c4cc(O)c5cc[nH]c5c4)cc3C[C@H]12

>  <CC50>
6.31 µM

$$$$
>  <inputSmiles>
COc1cc(/C=C/c2cc(OC)c3c(CC=C(C)C)c[nH]c3c2)cc2c1O[C@]1(C)CC[C@@H](O)C(C)(C)[C@H]1C2

>  <CC50>
17 µM

$$$$
>  <inputSmiles>
COc1cc(/C=C/c2cc(OC)c3ccn(C)c3c2)cc2c1O[C@]1(C)CC[C@@H](O)C(C)(C)[C@H]1C2

>  <CC50>
61.7 µM

$$$$

Please report CC50 for every entry that follows.
1. COc1cc(/C=C/c2cc(O)c3c(c2)C[C@@H]2C(C)(C)[C@H](O)CC[C@@]2(C)O3)cc2[nH]cc(CC=C(C)C)c12
2. COc1cc(/C=C/c2cc(O)c3c(c2)C[C@@H]2C(C)(C)[C@H](O)CC[C@@]2(C)O3)cc2c1ccn2C
3. COc1cc(/C=C/c2cc(O)c3c(C/C=C(\C)CCC=C(C)C)c[nH]c3c2)cc2c1O[C@]1(C)CC[C@@H](O)C(C)(C)[C@H]1C2
4. COc1cc(/C=C/c2cc(O)c3cc(CC=C(C)C)[nH]c3c2)cc2c1O[C@]1(C)CC[C@@H](O)C(C)(C)[C@H]1C2
5. COc1cc(/C=C/c2cc(O)c3cc[nH]c3c2)cc2c1O[C@]1(C)CC[C@@H](O)C(C)(C)[C@H]1C2
6. COc1cc(/C=C/c2cc(O)c3ccn(C)c3c2)cc2c1O[C@]1(C)CC[C@@H](O)C(C)(C)[C@H]1C2

a:
66.1 µM
89.1 µM
57.5 µM
> 100 µM
5.37 µM
> 100 µM

Below are some compounds; for each one, tell me its CC50.
1. COc1cc(/C=C/c2cc(O)c3c(CC=C(C)C)c[nH]c3c2)cc2c1O[C@]1(C)CC[C@@H](O)C(C)(C)[C@H]1C2
2. COc1cc(/C=C/c2cc(OC)c3c(C/C=C(\C)CCC=C(C)C)c[nH]c3c2)cc2c1O[C@]1(C)CC[C@@H](O)C(C)(C)[C@H]1C2
3. COc1cc(/C=C/c2cc(OC)c3cc[nH]c3c2)cc2c1O[C@]1(C)CC[C@@H](O)C(C)(C)[C@H]1C2

a:
50.1 µM
43.7 µM
37.2 µM

Cited source for all entries: ChEMBL document CHEMBL3232844
